Data provenance: the supplement of paper PMC10567573

B1: RIT1 (parent)
chain: FHALVREIRRKEKEAVLAMEKKSK

- Variants of: B1
- Protocol description: protein stability index of a GFP-peptide fusion (GPS, HEK-293T) (PSI 1-6); higher = more stable;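 also: lentivirally expressed fusions sorted by FACS into six bins by GFP to DsRed ratio, PSI derived from sequencing read proportions per bin multiplied by bin number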
- Condition parameters: c terminus: a fixed tail appended
Is protein stability index at least 2? Then yes. If not, no.

Reference set (10 entries):
M19L    yes
R6M    no
K24S    no
S23V    no
R6I    yes
L17E    yes
R9T    no
M19Y    no
K22M    yes
A18C    no

Is the recorded value of protein stability index equal to or greater than 2 for this variant? `K22T`
yes

# check: protein stability index of `A3C` is greater than or equal to 2
yes

Assess whether reported protein stability index for `V16S` sits at 2 or higher.
yes

Has `L4C` a recorded protein stability index greater than or equal to 2?
no

Entry `A18I` : is its protein stability index no less than 2?
no

State whether the measured protein stability index reaches 2, counting equality as reaching it, for `F1A`
yes

Kindly determine if protein stability index recorded for `L4Y` is above or exactly 2.
yes
